- System: S. aureus
- assay_remarks: microbe, parasite or virus in culture
- details: SO-SAU19-1 (MRSA)
quantity: Combination effect with 0.5× MIC betatide

> print(dat)
                                   molecule  experimental.result
1  CCC[C@@H]1C[C@@H](C(=O)N[C@@H]([C@H]2O[C@H](SC)[C@H](O)[C@@H](O)[C@H]2O)[C@H](C)Cl)N(C)C1          Additive 2×
2  CO[C@@]1(NC(=O)Cc2cccs2)C(=O)N2C(C(=O)O)=C(COC(N)=O)CS[C@@H]21          Additive 2×
